Cited source: paper PMC9352680

Biological target: T1, PUF4 RNA-binding domain (Saccharomyces cerevisiae, UniProt P25339 537-888)
T1 sequence: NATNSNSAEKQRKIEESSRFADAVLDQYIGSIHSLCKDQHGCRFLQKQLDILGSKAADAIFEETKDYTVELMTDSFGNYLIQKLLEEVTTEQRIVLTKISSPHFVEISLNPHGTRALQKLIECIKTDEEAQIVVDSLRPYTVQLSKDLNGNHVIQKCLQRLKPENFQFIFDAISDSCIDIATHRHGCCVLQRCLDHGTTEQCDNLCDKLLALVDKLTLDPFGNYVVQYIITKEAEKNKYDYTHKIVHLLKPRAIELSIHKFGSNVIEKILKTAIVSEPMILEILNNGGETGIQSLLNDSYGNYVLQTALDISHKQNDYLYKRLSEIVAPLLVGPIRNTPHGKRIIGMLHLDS
Assay: Mg; RNA-MaP; 20 mM Na-HEPES pH 7.4, 30 mM KOAc, 0.75 mM MgCl2, 0.1% Tween-20, 5% glycerol, 0.1 mg/mL BSA, 2 mM DTT; 25 C; 0.0125-409.6 nM protein
Details: tags: N-His6-TEV cleaved; C-SNAP kept, Cy3B-labelled; label: tethered on chip by stalled RNA polymerase
pKd: −log10 of the molar value.
# cutoff 7 applies to pKd; >= gives condition met, < gives condition not met

binder	label
UCUCUUCAUGUAUAUAUUUCUCUU (ssRNA) [Id_ii_S1_P3E.2_K3.1_C3.2_[T-1A]_H3.1_A3.1_F3.1_T3.2_[A10T]]	condition met
Ib_S2_P5E.1_K5.1_C5.1_H5.1_A5.1_[T5G]_F5.1_[T8A]_T5.1 (ssRNA) RNA: UUUGAUUAAUAUGAUAUCGUUCUUUCUUGUAGUAAUAUUCUUUCUCGAUAUCAUAUUAAUCUUU	condition met
Id_ii_S2_P4E.4_K4.3_C4.2_[T-1A]_H4.3_A4.1_F4.1_T4.2_[G10A]_[T11C] (ssRNA) RNA: UUUGAUUAAUAUGAUAUCGUUCUUUCUCAACACUAUUAACUUCUUUCUCGAUAUCAUAUUAAUCUUU	condition not met
ACAAACAAUAUAUAUUAGCACAAAC (ssRNA) [Id_ii_S3_P4E.3_K4.2_C4.2_[C-2A]_[T-1A]_H4.2_A4.1_F4.1_T4.2_[T11C]]	condition met
Ic_S2_P4E.1_K4.1_C4.1_H4.1_A4.1_[T5C]_[A6G]_[T7C]_F4.1_[T8C]_T4.1 (ssRNA) RNA: UUUGAUUAAUAUGAUAUCGUUCUUUCUUGUACGCCAUUCUUUCUCGAUAUCAUAUUAAUCUUU	condition met
Ie_S2_P5E.1_K5.1_C5.1_H5.1_[+2TCT]_A5.1_F5.1_T5.1 (ssRNA) RNA: UUUGAUUAAUAUGAUAUCGUUCUUUCUUGUCUUAUUAUUAUUCUUUCUCGAUAUCAUAUUAAUCUUU	condition met
UCUCUUCCUGUAUAUUAUUUCUCUU (ssRNA) [Id_ii_S1_P4E.2_K4.1_C4.2_[T-1C]_H4.1_A4.1_F4.1_T4.2_[G10T]]	condition met
Id_ii_S2_P5E.2_K5.1_C5.2_[C-2G]_[T-1C]_H5.1_A5.1_F5.1_T5.2_[T11A]_[A12C] (ssRNA) RNA: UUUGAUUAAUAUGAUAUCGUUCUUUCUGCUGUAUUAUUAACUUCUUUCUCGAUAUCAUAUUAAUCUUU	condition met
UCUCUUUGUAUUUCAUUAUCUCUU (ssRNA) [Ie_S1_P4E.1_K4.1_C4.1_H4.1_A4.1_[+5TTC]_F4.1_T4.1]	condition met
UCUCUUUGCUCUCUAUAUUAUCUCUU (ssRNA) [Ie_S1_P4E.1_K4.1_C4.1_H4.1_[+2CTCTC]_A4.1_F4.1_T4.1]	condition not met
UCUCUUCUACACUAUAGCUCUCUU (ssRNA) [Id_ii_S1_P3E.4_K3.3_C3.2_H3.3_A3.1_F3.1_T3.2_[T9G]_[A10C]]	condition not met
UCUCUUUGUAAAUACUUCUCUU (ssRNA) [Ic_S1_P5E.1_K5.1_C5.1_H5.1_A5.1_[T5A]_[T6A]_[A7T]_F5.1_[T8A]_[T9C]_[A10T]_T5.1]	condition met
UCUCUUUGUAUACCGUCUCUU (ssRNA) [Ic_S1_P4E.1_K4.1_C4.1_H4.1_A4.1_[T7C]_F4.1_[T8C]_[A9G]_T4.1]	condition not met
UCUCUUUAUAUAUAUUAAAUCUCUU (ssRNA) [Id_ii_S1_P4E.3_K4.2_C4.2_[C-2T]_[T-1A]_H4.2_A4.1_F4.1_T4.2_[G10A]_[T11A]]	condition met
UCUCUUCCUAUAUUAUCUCUU (ssRNA) [Ib_S1_P4E.1_K4.1_C4.1_H4.1_[T1C]_[G2C]_A4.1_F4.1_T4.1]	condition not met
UCUCUUUCACACUAUAUUUCUCUU (ssRNA) [Id_ii_S1_P3E.4_K3.3_C3.2_[C-2T]_[T-1C]_H3.3_A3.1_F3.1_T3.2_[A10T]]	condition not met
Id_ii_S2_P4E.3_K4.2_C4.2_[T-1A]_H4.2_A4.1_F4.1_T4.2_[G10C] (ssRNA) RNA: UUUGAUUAAUAUGAUAUCGUUCUUUCUCAUAUAUAUUACUUUCUUUCUCGAUAUCAUAUUAAUCUUU	condition met
UCUCUUAUACACUAUAUUUCUCUU (ssRNA) [Id_ii_S1_P3E.4_K3.3_C3.2_[C-2A]_H3.3_A3.1_F3.1_T3.2_[A10T]]	condition met
Ib_S2_P3E.1_K3.1_C3.1_H3.1_[T1A]_[G2A]_A3.1_F3.1_T3.1 (ssRNA) RNA: UUUGAUUAAUAUGAUAUCGUUCUUUCUAAUAUAUAUUCUUUCUCGAUAUCAUAUUAAUCUUU	condition not met
UCUCUUAAUAUAUAUUAUUUCUCUU (ssRNA) [Id_ii_S1_P4E.3_K4.2_C4.2_[C-2A]_[T-1A]_H4.2_A4.1_F4.1_T4.2_[G10T]]	condition met
Ic_S2_P5E.1_K5.1_C5.1_H5.1_A5.1_[T6A]_[A7T]_F5.1_[T8C]_[T9A]_[A10G]_T5.1 (ssRNA) RNA: UUUGAUUAAUAUGAUAUCGUUCUUUCUUGUAUAUCAGUUCUUUCUCGAUAUCAUAUUAAUCUUU	condition met
Id_ii_S2_P3E.3_K3.2_C3.2_[C-2T]_[T-1G]_H3.2_A3.1_F3.1_T3.2_[A10G] (ssRNA) RNA: UUUGAUUAAUAUGAUAUCGUUCUUUCUUGUAUAUAUAUGUUCUUUCUCGAUAUCAUAUUAAUCUUU	condition met
UCUCUUGGCUGUAUAUAUAUCUCUU (ssRNA) [Id_i_S1_P3E.5_K3.1_C3.3_[T-3G]_[C-2G]_[T-1C]_H3.1_A3.1_F3.1_T3.2]	condition met
Id_ii_S2_P4E.3_K4.2_C4.2_[C-2T]_[T-1A]_H4.2_A4.1_F4.1_T4.2_[G10A] (ssRNA) RNA: UUUGAUUAAUAUGAUAUCGUUCUUUCUUAUAUAUAUUAAUUUCUUUCUCGAUAUCAUAUUAAUCUUU	condition met
ACAAACGGACACUUAUUACAACAAAC (ssRNA) [Id_ii_S3_P5E.4_K5.3_C5.2_[C-2G]_[T-1G]_H5.3_A5.1_F5.1_T5.2_[T11C]]	condition not met
